Tested on: EKVX NSCLC
Assay: NCI-60 one-dose screen, 48 h
Details: 10 µM unless noted
About 83,000 compounds went through this panel and 20% of them were active in at least one assay; those are over-represented in the sample as a whole. Active and inactive are the calls of the source. Rule for the calls: active = growth percent below 10; inactive = the rest.
Outcome (select one): y for active, n for inactive

[ask] Field: outcome | Entry: Cn1cnc2c(N3CCN(C(=O)OCc4ccc5c(Cl)cc(Cl)c(O)c5n4)CC3)nc(Cl)nc21
[reply] n

[ask] Ok, now Nc1nc(=O)c2ccccc2s1
[reply] n

[ask] Also O=C(Nc1ccncc1)C(=O)c1cn(S(=O)(=O)c2ccc(Br)cc2)c2ccccc12 ?
[reply] n

[ask] What about this compound? Cc1ccc2ccccc2c1C[n+]1ccccc1
[reply] n

[ask] Item: CC12CCC3C4(C)COC(c5ccco5)OC4CCC3(C)C1CC(C1=CCOC1=O)O2 (stereo unspecified)
[reply] n

[ask] Here is the next compound: CCOC(=O)C1=C(C)NC(C)=C(C(=O)OCC)C1(C)C
[reply] n

[ask] Next up: Cc1nc2cncc(C#Cc3cncc(C(=O)Nc4ccc(CN5CCN(C)CC5)c(C(F)(F)F)c4)c3)c2nc1C
[reply] y

[ask] Now give it for C=C(C)[C@@H]1CC[C@]2(C(=O)O)CC[C@]3(C)[C@H](CC[C@@H]4[C@@]5(C)C[C@@H](CC#Cc6ccc(C(F)(F)F)cc6)[C@H](O)C(C)(C)[C@@H]5CC[C@]43C)[C@@H]12 too.
[reply] n

[ask] Thanks! And Nc1cc2c(cc1C(=O)c1cccc(F)c1)OCCO2 ?
[reply] n

[ask] Try O=S(=O)(CC(O)(c1ccccc1)c1ccccc1)CC(O)(c1ccccc1)c1ccccc1 next.
[reply] n

[ask] One more compound: O=C(NNC(=O)N1c2ccccc2C=Cc2ccccc21)c1ccc2ccccc2c1
[reply] n

[ask] Try CC(O)CN1CCCCC1 (stereo unspecified) next.
[reply] n

[ask] How about this compound: c1ccc(-c2cn(-c3ccccc3)c(-c3ccccc3)n2)cc1
[reply] n

[ask] How about COc1ccc(/C=C2/C(=O)NC(SCC(=O)N3CCN(c4cc5c(cc4F)c(=O)c(C(=O)O)cn5C4CC4)CC3)=NC2N)cc1OC (stereo unspecified) ?
[reply] n

[ask] What do you get for O=C1CCCCC1(c1ccccc1)c1ccccc1 ?
[reply] n

[ask] And what about the compound C1=Cc2ccccc2N(c2nnc(-c3ccccc3)o2)c2ccccc21 ?
[reply] n

* * *

Test system: U251 CNS
Assay: NCI-60 one-dose screen, 48 h (100 = growth as untreated, 0 = no growth, -100 = all killed)
Settings: 10 µM unless noted
The panel holds about 83,000 compounds, 20% with a hit somewhere; the sample as a whole holds those more often.
Decide using growth: a value greater than or equal to 60% is YES, a smaller one is NO.

[ask] Could you please find out whether S=C1CC(=S)NC(=S)N1 has growth that meets 60% or exceeds it?
[reply] YES

[ask] Same question, Cc1ccc2ccccc2c1C[n+]1ccccc1 this time
[reply] YES

[ask] Next compound: CCOC(=O)c1ccc2c(c1)c1c(C)c3cccnc3c(C)c1n2C
[reply] NO

[ask] Now consider Cc1ccc(-c2cc3nc(-c4ccccc4)nc(C(Cl)Cl)n3n2)cc1 and answer again.
[reply] NO

[ask] Request: CCN(CC)CCC(CNc1ccnc2cc(Cl)ccc12)c1ccc(Cl)cc1 (stereo not given)
[reply] NO

[ask] And the next one, Cn1c(=O)cc(NC(=O)CN2CCN(c3cc4c(cc3F)c(=O)c(C(=O)O)cn4C3CC3)CC2)[nH]c1=O ?
[reply] YES

[ask] Next: COc1ccc2c(c1)cn1c3ccc(OC)cc3[nH]c(=O)c21
[reply] NO

[ask] Moving on to Cc1ccc2nc(-c3cc4c([nH]c5ccccc54)c(-c4ccc(F)c(F)c4)n3)[nH]c2c1
[reply] YES

[ask] Cool, now CCCCN(CCCC)C(=N)c1ccnc2ccccc12
[reply] YES

[ask] And the next one, C=C1c2nc3ccccc3n2C=C(c2ccc(Cl)cc2)N1Cc1ccccc1 ?
[reply] YES

[ask] Entry to check: O=C(Nc1ccc2c(c1)OCCO2)C(=O)c1c[nH]c2ccccc12
[reply] NO

[ask] Now consider COc1ccc(C2C=C(c3ccc(Cl)cc3)N=C3SC=C(C)N32)c(Br)c1 (stereo not given) .
[reply] NO

[ask] Can you check c1cc2[nH]ncc2cc1-c1nc2ccc3[nH]ncc3c2c2c1CCC2 next?
[reply] NO

[ask] What do you get for COc1ccc(C(=O)N2NC(=O)/C(=C/c3ccc(F)cc3)N=C2c2ccccc2)cc1 ?
[reply] NO

[ask] Item: Cc1ccc(Nc2nnc(-c3ccc(Cl)cc3)o2)c(C)c1
[reply] YES

[ask] # iterate: CNC(=S)NNC(=O)C1CC1
[reply] YES

[ask] Query COC(OC)c1ccccc1 next
[reply] YES

[ask] Let us now turn to Brc1ccc(-c2[nH]ncc2-c2c[nH]c3ccccc23)cc1
[reply] YES

[ask] Also O=S(=O)(NCCNc1nccc(-c2c(-c3cccc(O)c3)nc3sccn23)n1)c1ccc(F)cc1 , if possible.
[reply] YES

[ask] Could you do the same for CCN(CC)c1ccc(N=O)cc1 , please?
[reply] NO

Numbers sourced from PubChem BioAssay (NCI).
